assay: Brain and plasma compound concentration in mouse after oral dose; type: in vivo; details: 30 mg/kg, brain, 30 mpk po, read-out: Brain concentration @ 30 mpk po (4 hr)
ASSAY READOUT: concentration at 4 h (µM)

Name the recorded concentration at 4 h for CC(C)CC(C(=O)O)c1cc(OCc2cc(F)cc(F)c2)cc(-c2ccc(Cl)c(C(F)(F)F)c2)c1 (stereo not shown) [Compound 4] .
6.5

Name the recorded concentration at 4 h for CC(C)C[C@@H](C(=O)O)c1cc(OCc2cc(F)cc(F)c2)cc(-c2ccc(C(F)(F)F)cc2)c1 [Compound 1] .
6.9

a. CC(C)C[C@@H](C(=O)O)c1cc(OCc2ccc(F)cc2C(F)(F)F)cc(-c2ccc(C(F)(F)F)cc2)c1 [Compound 3]
b. CC(C)C[C@H](C(=O)O)c1cc(OCc2cc(F)cc(F)c2)cc(-c2ccc(C(F)(F)F)cc2)c1 [Compound 2]
Endpoint returns the identifier whose concentration at 4 h is numerically larger, either a or b . Lab log: write the label of the selected item as the result.
b
(b: 11.1 µM, a: 5.1 µM)

----------
Experiment: Brain and plasma compound concentration in mouse after oral dose
Type: in vivo
Conditions: 30 mg/kg, plasma, 30 mpk po, read-out: Plasma concentration @ 30 mpk po (4 hr)
Procedure: A typical protocol for measuring Aβ42 lowering in vivo is shown but it is only one of many variations that could be used to optimize the levels of detectable Aβ. […] The Aβ42 lowering agents are administered as a single oral dose or by any acceptable route of administration e.g., three to four hours before sacrifice, determined empirically, and analysis or alternatively could be given over a course of days and the animals sacrificed three to four hours after the final dose is given. […]
ASSAY READOUT: concentration at 4 h (µM)

A. CC(C)C[C@H](C(=O)O)c1cc(OCc2cc(F)cc(F)c2)cc(-c2ccc(C(F)(F)F)cc2)c1
B. CC(C)C[C@@H](C(=O)O)c1cc(OCc2ccc(F)cc2C(F)(F)F)cc(-c2ccc(C(F)(F)F)cc2)c1
Which of these two has the smaller recorded concentration at 4 h: A or B ? Lab log: write the label of the selected item as the result.
B
(B: 5.1 µM, A: 11.1 µM)

----------
molecular target: γ-secretase (Homo sapiens); construct: endogenous in cells; experiment: WTAPP cell assay Aβ42 (γ-secretase-modulating activity, SKNBE2 cells carrying APP 695 wild type); settings: SKNBE2 cells carrying APP 695 wild type
pEC50: −log10 of the molar value.
ASSAY READOUT: pEC50

Name the recorded pEC50 for CC(C)CC(C(=O)O)c1cc(OCc2cc(F)cc(F)c2)cc(-c2ccc(Cl)c(C(F)(F)F)c2)c1 (stereo not shown) [Compound 4] .
6.72

a. CC(C)C[C@@H](C(=O)O)c1cc(OCc2ccc(F)cc2C(F)(F)F)cc(-c2ccc(C(F)(F)F)cc2)c1 [Compound 3]
b. CC(C)C[C@H](C(=O)O)c1cc(OCc2cc(F)cc(F)c2)cc(-c2ccc(C(F)(F)F)cc2)c1 [Compound 2]
Which of these two has the smaller recorded pEC50: a or b ? Lab log: write the label of the selected item as the result.
b
